In this section, each of the compounds is paired with its reported Blackgrass plant response rating (0-100).
tested on: blackgrass (Alopecurus myosuroides); assay: Test A preemergence soil spray, visual injury rating 0-100; assay type: in vivo; settings: 31 g ai/ha, 10 days, 0 = no effect, 100 = complete control

Compound: CC(C)OC(=O)C1CCC(NC(=O)C2(C)CN(c3cc(F)cc(Cl)c3)C(=O)O2)C1 (stereo not drawn)
Test System: blackgrass (Alopecurus myosuroides)
Blackgrass plant response rating (0-100): 0
//
Compound: CC1(C(=O)NC2CCC(C(=O)NS(C)(=O)=O)C2)CN(c2cc(F)cc(F)c2)C(=O)O1 (stereo not drawn)
Test System: blackgrass (Alopecurus myosuroides)
Blackgrass plant response rating (0-100): 20
//
Compound: CNC(=O)C1CC(NC(=O)C2(C)CN(c3cc(F)cc(F)c3)C(=O)O2)CO1 (stereo not drawn)
Test System: blackgrass (Alopecurus myosuroides)
Blackgrass plant response rating (0-100): 0

###

// reported Amaranth, Palmer / Pigweed, Palmer plant response rating (0 to 100 scale) per item
tested on: palmer (palmer amaranth, palmer pigweed, Amaranthus palmeri); assay: Test A postemergence application, visual injury rating 0-100; format: in vivo; conditions: Postemergence, 125 g ai/ha, 10 days; 0 is no effect, 100 is complete control
Observed Property: Amaranth, Palmer / Pigweed, Palmer plant response rating (0 to 100 scale)

Compound: CNC(=O)C1CC(NC(=O)C2(C)CN(c3cc(F)cc(F)c3)C(=O)O2)CO1 (centres unmarked)
Result: 0
//
Compound: CSCCOC(=O)C1C=CC(NC(=O)C2(C)CN(c3cc(Cl)cc(Cl)c3)C(=O)O2)C1 (centres unmarked) [Compound 69]
Result: 90
//
Compound: COC(=O)[C@H]1C[C@@H](NC(=O)C2(C)CN(c3cc(F)cc(F)c3)C(=O)O2)[C@H]2C[C@H]21 (some centres unmarked)
Result: 80
//
Compound: CCOC(=O)C1CCC(NC(=O)C2(C)CN(c3cc(F)cc(F)c3)C(=O)O2)C1 (centres unmarked)
Result: 60
//
Compound: CC1(C(=O)NC2C=CC(C(=O)NS(=O)(=O)c3ccccc3)C2)CN(c2cc(Cl)cc(Cl)c2)C(=O)O1 (centres unmarked)
Result: 90
//
Compound: CC1(C(=O)NC2CCC(C(=O)O)C2)CN(c2cc(F)cc(Cl)c2)C(=O)O1 (centres unmarked)
Result: 80
//
Compound: CC1(C(=O)NC2C=CC(C(=O)OC3CCCC3)C2)CN(c2cc(Cl)cc(Cl)c2)C(=O)O1 (centres unmarked)
Result: 100
//
Compound: CC(C)OC(=O)C1=CCC(NC(=O)C2(C)CN(c3cc(F)cc(F)c3)C(=O)O2)C1 (centres unmarked)
Result: 50

###

system: kochia (Bassia scoparia); test: Test A preemergence soil spray, visual injury rating 0-100; format: in vivo; conditions: 62 g ai/ha, 10 days, 0 = no effect, 100 = complete control

Molecule: CC(C)COC(=O)C1=CCC(NC(=O)C2(C)CN(c3cc(Cl)cc(Cl)c3)C(=O)O2)C1 (stereo not shown)
Kochia plant response rating (0-100): 20
//
Molecule: COC(=O)C1C=CC(NC(=O)C2(C)CN(c3cc(F)cc(F)c3)C(=O)O2)C1 (stereo not shown) [Compound 89]
Kochia plant response rating (0-100): 100
//
Molecule: CC1(C(=O)NC2C=CC(C(=O)O)C2)CN(c2cc(Cl)c(F)c(Cl)c2)C(=O)O1 (stereo not shown)
Kochia plant response rating (0-100): 10
//
Molecule: COC(=O)C1C=CC(NC(=O)C2(C)CN(c3cccc(OC(F)(F)F)c3)C(=O)O2)C1 (mixture of isomers)
Kochia plant response rating (0-100): 0

###

Let's look at some compounds and their measured Corn plant response rating (0-100).
system: corn (Zea mays); experiment: Test A preemergence soil spray, visual injury rating 0-100; assay type: in vivo; conditions: 31 g ai/ha, 10 days, 0 = no effect, 100 = complete control

Compound: CC1(C(=O)NC2CCC(C(=O)O)C2)CN(c2cc(F)cc(F)c2)C(=O)O1 (centres unmarked)
Corn plant response rating (0-100): 10

Compound: CCOC(=O)C1CCC(NC(=O)C2(C)CN(c3cc(F)cc(F)c3)C(=O)O2)C1 (centres unmarked)
Corn plant response rating (0-100): 0

Compound: CONC(=O)C1CC(NC(=O)C2(C)CN(c3cc(F)cc(F)c3)C(=O)O2)CO1 (centres unmarked) [Compound 41]
Corn plant response rating (0-100): 0

Compound: CSCCOC(=O)C1C=CC(NC(=O)C2(C)CN(c3cc(Cl)cc(Cl)c3)C(=O)O2)C1 (centres unmarked)
Corn plant response rating (0-100): 0

Compound: CCOC(=O)C1=CCC(NC(=O)C2(C)CN(c3cc(F)cc(F)c3)C(=O)O2)C1 (centres unmarked)
Corn plant response rating (0-100): 20

Compound: CCOC(=O)C1CCC(NC(=O)C2(C)CN(c3cc(F)cc(Cl)c3)C(=O)O2)C1 (centres unmarked)
Corn plant response rating (0-100): 10

Compound: COC(=O)C1CC(NC(=O)C2(C)CN(c3cc(F)cc(F)c3)C(=O)O2)CO1 (centres unmarked)
Corn plant response rating (0-100): 0

Compound: CC(C)OC(=O)C1CCC(NC(=O)C2(C)CN(c3cc(F)cc(F)c3)C(=O)O2)C1 (centres unmarked)
Corn plant response rating (0-100): 0

###

tested on: galium (catchweed bedstraw, Galium aparine); assay: Test A postemergence application, visual injury rating 0-100; assay type: in vivo; settings: Postemergence, 16 g ai/ha, greenhouse 10 days; 0 no effect, 100 complete control
Observed Property: Galium plant response rating (0 to 100 scale)

Compound: CCOC(=O)C1CC(NC(=O)C2(C)CN(c3cc(F)cc(F)c3)C(=O)O2)C1 (stereo not shown) [Compound 125]
Test System: galium (catchweed bedstraw, Galium aparine)
Result: 30
--
Compound: CC1(C(=O)NC2CC(C(=O)O)C2)CN(c2cc(F)cc(Cl)c2)C(=O)O1 (racemic) [Compound 139]
Test System: galium (catchweed bedstraw, Galium aparine)
Result: 50
--
Compound: CC1(C(=O)NC2CC(C(=O)O)C2)CN(c2cc(F)cc(F)c2)C(=O)O1 (stereo not shown) [Compound 119]
Test System: galium (catchweed bedstraw, Galium aparine)
Result: 20
--
Compound: CC1(C(=O)NC2C=CC(C(=O)O)C2)CN(c2cc(Cl)c(F)c(Cl)c2)C(=O)O1 (stereo not shown) [Compound 124]
Test System: galium (catchweed bedstraw, Galium aparine)
Result: 70

###

tested on: kochia (Bassia scoparia); assay: Test A preemergence soil spray, visual injury rating 0-100; format: in vivo; conditions: 31 g ai/ha, 10 days, 0 = no effect, 100 = complete control
Observed Property: Kochia plant response rating (0-100)

Molecule: CC(C)COC(=O)C1C=CC(NC(=O)C2(C)CN(c3cc(Cl)cc(Cl)c3)C(=O)O2)C1 (stereo not shown) [Compound 66]
Observed Property: Kochia plant response rating (0-100)
Result: 0

Molecule: COC(=O)C1C=CC(NC(=O)C2(C)CN(c3cc(F)cc(Cl)c3)C(=O)O2)C1 (stereo not shown) [Compound 17]
Observed Property: Kochia plant response rating (0-100)
Result: 50

Molecule: CC1(C(=O)NC2CC=C(C(=O)O)C2)CN(c2cc(F)cc(F)c2)C(=O)O1 (stereo not shown) [Compound 38]
Observed Property: Kochia plant response rating (0-100)
Result: 0

Molecule: CC1(C(=O)NC2CCC(C(=O)O)C2)CN(c2cc(F)cc(F)c2)C(=O)O1 (stereo not shown) [Compound 9]
Observed Property: Kochia plant response rating (0-100)
Result: 0

###

system: wheat (Triticum aestivum); experiment: Test A postemergence application, visual injury rating 0-100; type: in vivo; details: Postemergence, 500 g ai/ha, 10 days; 0 is no effect, 100 is complete control
Text: […]
Each entry below carries its recorded Wheat plant response rating (0 to 100 scale).
Observed Property: Wheat plant response rating (0 to 100 scale)

Compound: CCCOC(=O)C1C=CC(NC(=O)C2(C)CN(c3cc(F)cc(F)c3)C(=O)O2)C1 (centres unmarked)
Test System: wheat (Triticum aestivum)
Result: 80
//
Compound: CSCCOC(=O)C1C=CC(NC(=O)C2(C)CN(c3cc(Cl)cc(Cl)c3)C(=O)O2)C1 (centres unmarked)
Test System: wheat (Triticum aestivum)
Result: 90
//
Compound: CC(C)OC(=O)C1C=CC(NC(=O)C2(C)CN(c3cc(Cl)cc(Cl)c3)C(=O)O2)C1 (centres unmarked)
Test System: wheat (Triticum aestivum)
Result: 90
//
Compound: CC1(C(=O)NC2C=CC(C(=O)OCCS(C)(=O)=O)C2)CN(c2cc(F)cc(F)c2)C(=O)O1 (centres unmarked)
Test System: wheat (Triticum aestivum)
Result: 90
//
Compound: COCCOC(=O)C1C=CC(NC(=O)C2(C)CN(c3cc(F)cc(F)c3)C(=O)O2)C1 (centres unmarked)
Test System: wheat (Triticum aestivum)
Result: 80

Data provenance is patent US20260285850A1.
